Data provenance: PubChem BioAssay (NCATS)

Molecular target: Cytochrome P450 2C9 (Homo sapiens) (UniProt P11712)
Sequence (P11712 whole entry, looked up): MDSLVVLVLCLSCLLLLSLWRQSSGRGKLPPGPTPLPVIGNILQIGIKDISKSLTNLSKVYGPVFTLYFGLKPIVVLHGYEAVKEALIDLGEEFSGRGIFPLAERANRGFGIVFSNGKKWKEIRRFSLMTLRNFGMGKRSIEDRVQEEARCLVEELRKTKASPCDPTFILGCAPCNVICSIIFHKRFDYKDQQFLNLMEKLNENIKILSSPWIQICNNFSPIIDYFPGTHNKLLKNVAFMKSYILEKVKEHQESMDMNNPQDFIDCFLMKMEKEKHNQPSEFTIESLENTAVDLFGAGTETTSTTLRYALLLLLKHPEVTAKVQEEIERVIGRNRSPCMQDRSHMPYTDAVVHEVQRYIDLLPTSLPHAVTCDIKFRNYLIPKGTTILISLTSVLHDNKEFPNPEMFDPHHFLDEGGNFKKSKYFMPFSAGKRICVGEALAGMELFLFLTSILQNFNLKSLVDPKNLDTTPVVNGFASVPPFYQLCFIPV
Experiment: Cytochrome P450 family 2 subfamily C member 9 (CYP2C9) small molecule antagonists: luciferase biochemical (cell-free) qHTS assay (AID 1645842); also: nearly all actives have a fitted effect of over 55% in size
Conditions: P450-Glo CYP2C9 enzyme assay, luciferin luminescence; series mostly up to 57.4 µM
Inconclusive results are not listed. Active and inactive are the calls of the source. Calls follow the shape of the dose curve; as a rule, active = well fitted inhibition curve with a large enough effect in the repeat runs; inconclusive = weak or mixed curves; inactive = no such curve, though single readings can be large or run the other way.
Hi there, use one of these labels in your reply, thanks! true (active), false (inactive)

Solved entries (count: 5):
molecule	qualitative_label
CC(C)Oc1ccc(C(=O)NC(CNC(=O)CN(C)C)Cc2ccc(-c3cn4cccc(C(C)O)c4n3)cc2)cc1Cl (centres undefined)	true
O=c1[nH]ccc2cc(OC3CCNCC3)ccc12	false
CNS(=O)(=O)c1ccccc1Nc1nc(Nc2ccc(N3CCN(C)CC3)cc2OC)ncc1Cl	true
CC(=O)NCC(=O)N1C2CCC1c1cc(Nc3ncc(C(F)(F)F)c(NC4CCC4)n3)ccc12 (centres undefined)	true
CCO[C@@H]1OC(=O)C[C@@H]1NC(=O)[C@@H]1CCCN1C(=O)[C@@H](NC(=O)c1ccc(N)c(Cl)c1)C(C)(C)C	false

Query block: State the result this test recorded for `c1cc(Nc2cc(C3CC3)[nH]n2)nc(Nc2ccc3nc[nH]c3c2)n1` .
Result block: true

Query block: Also check NC1CCC(Nc2cc(-c3cccc(NCc4cccc(F)c4)n3)c(Cl)cn2)CC1 (centres undefined)
Result block: true

Query block: Please give the result for COC(=O)CC1CC(c2ccc(O)cc2)=NO1 (centres undefined) too.
Result block: false

Query block: Note, next up: `CCNC(=O)Nc1ncc(-c2cc(-c3c(C)cc(OC)cc3C)nc(-c3cnccn3)n2)s1`
Result block: true

Query block: Next molecule: `CCN1CCN(Cc2ccc(Nc3ncc(F)c(-c4cc(F)c5nc(C)n(C(C)C)c5c4)n3)nc2)CC1`
Result block: false

Query block: Record: NC(=O)Nc1cc(-c2cccc(F)c2)sc1C(=O)NC1CCCNC1 (centres undefined)
Result block: false

Query block: How about this molecule: `O=C(NCc1cccc(O)c1)c1cc2cc(F)ccc2[nH]1`
Result block: true

Query block: Repeat for the following molecule: `O=C(CC(c1ccccc1)c1ccccc1)N1CCN(C(c2ccccc2)c2ccccc2)CC1`
Result block: true

Query block: Subsequent entry: `COc1cc2c(NC3CCN(CC4CCCCC4)CC3)nc(N3CCCN(C(C)C)CC3)nc2cc1OCCCN1CCCCC1`
Result block: false

Query block: Follow-up item: `COc1cc(OC)cc(C(=O)Nc2ccc(Cl)c(-c3nc4ccc(N(C)C)cc4[nH]3)c2)c1`
Result block: true

Query block: Proceed to `COc1ccc(-n2[nH]c(=O)c3[nH]c4cc(Cl)ccc4c(=O)c3c2=O)c(C)c1`
Result block: false

Query block: Another: `CCN1CCN(Cc2ccc(NC(=O)c3ccc(C)c(/C=C/c4cnc5[nH]ccc5c4OC)c3)cc2C(F)(F)F)CC1`
Result block: true

Query block: Field entry: `COc1cc(C(=O)NC2CCN(C)CC2)ccc1Nc1ncc2c(n1)N(C1CCCC1)CC(F)(F)C(=O)N2C`
Result block: false

Query block: Lookup `O=C(CSc1nc2c(c(=O)n1-c1ccccc1)SCC2)Nc1ccc(-c2ccccc2)cn1`
Result block: true

###

System: Tov112D
Experiment: Primary qHTS to identify gynecologic anti-cancer compounds using libraries of approved drugs and bioactive compounds (AID 1345084); also: % is scaled to controls: 0 for no effect and ±100 for the full control effect; nearly all actives have a fitted effect of over 55% in size
Conditions: Gynecologic cancer cell panel viability, ATPlite luminescence, 48 h; series mostly up to 57.5 µM
Results filed as inconclusive are left out. Calls of active or inactive are those of the source. Calls come from the whole dose curve; as a rule, active = well fitted cell-killing curve with a large enough effect; inconclusive = small, poorly fitted or top-dose-only effect, or effect the other way; inactive = flat fitted curve, though single readings scatter.
attribute_measured: activity change, negative = cytotoxicity

molecule	activity change, negative = cytotoxicity
CC1(C)CC[C@]2(C(=O)O[C@@H]3O[C@H](CO[C@@H]4O[C@H](CO)[C@@H](O)[C@H](O)[C@H]4O[C@@H]4O[C@H](CO)[C@H](O)[C@H](O)[C@H]4O)[C@@H](O)[C@H](O[C@@H]4O[C@H](CO)[C@@H](O)[C@H](O)[C@H]4O)[C@H]3O)CC[C@]3(C)C(=CCC4[C@@]5(C)CC[C@H](O[C@@H]6OC[C@@H](O)[C@H](O)[C@H]6O)[C@@](C)(C(=O)O)C5CC[C@]43C)[C@@H]2C1 (some centres not stated)	5.73% [at 6.55 µM] (inactive)

Query block: Fill in: activity change, negative = cytotoxicity of `C[C@@H]1C[C@H]2O[C@@H]2/C=C\C=C\C(=O)Cc2c(Cl)c(O)cc(O)c2C(=O)O1` is ___
Result block: -26.2% [at 11.6 µM] (inactive)

Query block: Now consider CC1(C)CC[C@]2(C(=O)O[C@@H]3O[C@H](CO)[C@@H](O)[C@H](O)[C@H]3O)CC[C@]3(C)C(=CCC4[C@@]5(C)CC[C@H](O[C@@H]6O[C@H](C(=O)O)[C@@H](O)[C@H](O)[C@H]6O)C(C)(C)C5CC[C@]43C)C2C1 (some centres not stated) and answer again.
Result block: 11.2% [at 11.6 µM] (inactive)

Query block: Item: C[C@@H]1O[C@@H](O[C@H]2[C@H](O)[C@@H](O[C@@H]3O[C@H](CO)[C@@H](O)[C@H](O[C@@H]4O[C@H](CO)[C@@H](O)[C@H](O)[C@H]4O)[C@H]3O)[C@H](O[C@H]3CC[C@@]4(C)C(=CC[C@@H]5C4CC[C@@]4(C)C5C[C@@H]5OC6(CC[C@@](C)(CO[C@@H]7O[C@H](CO)[C@@H](O)[C@H](O)[C@H]7O)O6)[C@@H](C)[C@@H]54)C3)O[C@@H]2CO)[C@H](O)[C@H](O)[C@H]1O (some centres not stated)
Result block: -2.67% [at 6.55 µM] (inactive)

Query block: Try this molecule too: CC1OC(OC2C(C)OC(OC3C(OC(=O)C45CCC(C)(C)CC4C4=CCC6C7(C)CCC(OC8OC(C(=O)O)C(O)C(O)C8OC8OC(CO)C(O)C(OC9OC(C)C(O)C(O)C9O)C8O)C(C)(CO)C7CCC6(C)C4(C)CC5)OC(CO)C(O)C3O)C(O)C2O)C(O)C(O)C1O (configuration not stated)
Result block: 13.7% [at 6.55 µM] (inactive)

Query block: Cool, now C=CC1C(OC2OC(CO)C(O)C(O)C2O)OC=C(C(=O)OC)C1CC(=O)OCC1C(C)C(O)CC1C(CO)COC(=O)CC1C(C(=O)O)=COC(OC2OC(CO)C(O)C(O)C2O)/C1=C\C (configuration not stated)
Result block: -1.58% [at 11.6 µM] (inactive)

Query block: Another: `C[C@@H]1O[C@@H](O[C@@H]2[C@@H](O)[C@@H](O[C@]3(CO)O[C@H](CO)[C@@H](O)[C@@H]3OC(=O)/C=C/c3ccc(O)cc3)O[C@H](CO)[C@H]2OC(=O)/C=C/c2ccc(O)cc2)[C@H](O)[C@H](O)[C@H]1O[C@@H]1O[C@@H](C)[C@H](O[C@@H]2OC[C@](O)(CO)[C@H]2O)[C@@H](O)[C@H]1O`
Result block: 12.6% [at 11.6 µM] (inactive)
